meta.source: the RNAGym collection of RNA variant scans (doi:10.1073/pnas.2313332121)

B1: TPR t1 (parent)
chain: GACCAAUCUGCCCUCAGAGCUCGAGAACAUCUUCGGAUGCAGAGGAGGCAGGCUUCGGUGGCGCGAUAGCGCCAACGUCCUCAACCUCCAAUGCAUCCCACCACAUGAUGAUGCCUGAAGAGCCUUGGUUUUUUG

- Variants of: B1
- ASSAY SUMMARY: polymerase ribozyme fitness, log enrichment relative to wild type (log ratio); higher = more active; in vitro selection for triplet polymerase activity
Label Criterion met when polymerase ribozyme fitness (log ratio) >= -3; otherwise Criterion not met.

mutation_name="C8U C49A" category="Criterion met"
mutation_name="C12G C79A" category="Criterion met"
mutation_name="C56U G110U A121U" category="Criterion met"
mutation_name="A2U U32C C79A" category="Criterion not met"
mutation_name="G69C G113A" category="Criterion met"
mutation_name="C11G C62U C101G U131G" category="Criterion not met"
mutation_name="G10U G77U U78G C114A" category="Criterion met"
mutation_name="U38A C101G G120C" category="Criterion met"
mutation_name="C15G C79G" category="Criterion not met"
mutation_name="G36U U55G A83U G110A U130G" category="Criterion not met"
mutation_name="C8U C70G C97U C124U U131A" category="Criterion met"
mutation_name="U21A A43U G61A C73U A90G" category="Criterion not met"
mutation_name="G10U G47C G51A C53G C56U" category="Criterion met"
mutation_name="G60C C85U U96A U106C A119U" category="Criterion not met"
mutation_name="U109A C123A" category="Criterion not met"
mutation_name="G63C C124U" category="Criterion met"
mutation_name="G57C G61U" category="Criterion met"
mutation_name="U112C C124G G128A" category="Criterion met"
mutation_name="A2U U59C C62G C94U C123A U125G" category="Criterion not met"
mutation_name="C12A A37G U132A" category="Criterion met"
mutation_name="G77A U81A" category="Criterion met"
mutation_name="C8U C13A G25U G39A G47U G63C G117C G120C" category="Criterion not met"
mutation_name="C79U C99A U112C" category="Criterion not met"
mutation_name="C4G C89A" category="Criterion met"
mutation_name="C15A U32C" category="Criterion met"
mutation_name="C31U C82A" category="Criterion not met"
mutation_name="A46G G61A" category="Criterion met"
mutation_name="A6U G36C A37G A43G" category="Criterion met"
mutation_name="C88U U112A" category="Criterion met"
mutation_name="G93A C104U" category="Criterion met"
mutation_name="U9G G10A U14G A46G G48A A66G C70U" category="Criterion not met"
mutation_name="A46U C56A G93A G120A C123U" category="Criterion met"
mutation_name="G17C C88U" category="Criterion not met"
mutation_name="G52A C53U C114U" category="Criterion met"
mutation_name="C70U U96A" category="Criterion met"
mutation_name="C20U C40G G63C" category="Criterion not met"
mutation_name="C22A G57C C102A" category="Criterion not met"
mutation_name="A18C A27G" category="Criterion not met"
mutation_name="U32G C97G A119G" category="Criterion not met"
mutation_name=A27U category="Criterion met"
mutation_name="G17C C40U A43U U130G" category="Criterion not met"
mutation_name="C8A C114U U126C" category="Criterion met"
mutation_name="G39A C56A" category="Criterion met"
mutation_name="G42A U78A" category="Criterion met"
mutation_name="G42C U96A C123U" category="Criterion met"
mutation_name="U78C U87G" category="Criterion met"
